Here, compounds appear alongside Ki reported for Procathepsin L (Homo sapiens, UniProt P07711) in the literature.

Example compounds with recorded Ki:
Q: Answer briefly: Ki recorded on Procathepsin L (Homo sapiens, UniProt P07711) for CCCC[C@H](NC(=O)OCC1(Cc2ccc(F)cc2)CCC1)C(=O)C(=O)Nc1n[nH]c2cc(Cl)ccc12
Ans: 10 to 100 nM

Q: Answer briefly: Ki recorded on Procathepsin L (Homo sapiens, UniProt P07711) for Cn1nc(C(F)(F)F)cc1-c1ccc(S(=O)(=O)N[C@@H](CC2CCCCC2)C(=O)NCCN2CCc3cc(F)ccc32)s1
Ans: > 10000 nM

Q: Answer briefly: Ki recorded on Procathepsin L (Homo sapiens, UniProt P07711) for CCC(C)C(NC(=O)C(CC(C)C)NC(=O)CN1CCN(C)CC1)C(=O)C(=O)NCC(=O)NC(Cc1ccc2ccccc2c1)C(N)=O (centres unmarked)
Ans: < 0.1 nM

Q: Answer briefly: Ki recorded on Procathepsin L (Homo sapiens, UniProt P07711) for CCCC[C@H](NC(=O)O[C@H](Cn1cnc2cc(Cl)c(Cl)cc21)C(C)(C)C)C(=O)C(=O)Nc1ccn[nH]1
Ans: 0.01 to 1 nM

Please look at the following compound next.
Q: Answer briefly: Ki recorded on Procathepsin L (Homo sapiens, UniProt P07711) for C[C@@H](CNc1cccc(C(N)=O)c1)NC(=O)[C@H](CC(C)(C)C)NC(=O)c1ccc(-c2cccc(F)c2)o1
Ans: > 10000 nM

====

Here, molecules appear alongside Ki reported for Procathepsin L (Homo sapiens, UniProt P07711) in the literature.
endpoint_label: Ki (nM)

Example molecules with recorded Ki:
Q: Answer briefly: Ki recorded on Procathepsin L (Homo sapiens, UniProt P07711) for CC(C)C(=O)NC(CC1(F)CCCC1)C(=O)NC1(C(=O)C(=O)Nc2ccn(C)n2)CC(F)C1 (centres unmarked)
Ans: 3300

Q: Answer briefly: Ki recorded on Procathepsin L (Homo sapiens, UniProt P07711) for CCOC(=O)NC(CC1(F)CCCC1)C(=O)NC1(C(=O)C(=O)Nc2ccn(C)n2)CC(OC)C1 (centres unmarked)
Ans: 2400

(A) CC[C@H](C)[C@H](NC(=O)C(=O)C(C)(C)NC(=O)[C@H](Cc1ccccc1)NC(=O)Cc1ccccc1)C(=O)NC(C)(C)C(=O)O
(B) CCC(C)C(NC(=O)C(=O)C(C)NC(=O)C(Cc1cccc(C(F)(F)F)c1)NC(=O)Cc1ccccc1)C(=O)NC(C)(C)C(=O)O (centres unmarked)
Q: Which value of Ki is numerically greater: that of A or that of B ? Lab log: write the label of the selected item as the result.
Ans: A
(A: 63400 nM, B: 1190 nM)

====

Here, compounds appear alongside Ki reported for UniProtKB P07711 in the literature.
endpoint_label: Ki (nM)

Example compounds with recorded Ki:
Q: Hello, please tell me recorded Ki for this one: CCC(C)C(NC(=O)C(CC(C)C)NC(=O)OCc1ccccc1)C(=O)C(=O)NC(Cc1ccc2ccccc2c1)C(N)=O (stereo not drawn)
Ans: 9.76

Q: Hello, please tell me recorded Ki for this one: O=C(NC1CC1)C(=O)C1(NC(=O)[C@H](CC2(F)CCCC2)NC(=O)c2ccc(O)c(F)c2)CC(F)(F)C1
Ans: 3100

Q: Hello, please tell me recorded Ki for this one: NC(=O)C(=O)C1(NC(=O)[C@H](CC2CCC2)NC(=O)C2CC2(F)F)CCC1 (single isomer, unassigned)
Ans: 4200

(a) CC[C@H](C)C(NC(=O)[C@H](CC(C)C)NC(=O)OCc1ccccc1)C(=O)C(=O)N[C@@H](CCCNC(=N)N)C(N)=O (stereo partly drawn)
(b) CC(C)C(=O)N[C@@H](CC1(C)CCCC1)C(=O)NC1(C(=O)C(=O)Nc2ccn(C)n2)CC(F)(F)C1
(c) CC(NC(=O)C(Cc1ccccc1)NC(=O)Cc1ccccc1)C(=O)C(=O)NC(Cc1cccc2ccccc12)C(=O)NC(C)(C)C(=O)O (stereo not drawn)
Q: Place the items in sequence of falling Ki. Form entry: labels listed in requested order.
Ans: b, c, a

(1) CCC(C)C(NC(=O)C(CC(C)C)NC(=O)OCc1ccccc1)C(=O)C(=O)N1CC(C(=O)NCc2n[nH]c3c2CCC3)C1 (stereo not drawn)
(2) Cn1ccc(NC(=O)C(=O)C2(NC(=O)[C@H](CC3(F)CCCC3)NC(=O)C(F)F)CC(F)(F)C2)n1
(3) CCC(C)C(NC(=O)C(CC(C)C)NC(=O)OCc1ccccc1)C(=O)C(=O)N1CC(C(=O)NC(Cc2ccc3ccccc3c2)C(N)=O)C1 (stereo not drawn)
Q: Put the compounds in ascending order of Ki. Form entry: labels listed in requested order.
Ans: 3, 1, 2

====

Here, molecules appear alongside pKi reported for Procathepsin L (Homo sapiens) in the literature.
pKi: −log10 of the molar value.

Example molecules with recorded pKi:
Q: Hello, please tell me recorded pKi for this one: CC(C(=O)N[C@@H](CC1CCCCC1)C(=O)NCCN1CCc2cc(F)ccc21)c1ccc(O)cc1 (stereo partly shown)
Ans: > 5.00

Q: Hello, please tell me recorded pKi for this one: C[C@@H](CNc1cc(F)ccc1F)NC(=O)[C@H](CC1CCCCC1)NC(=O)c1ccc(-c2cccc(F)c2)o1
Ans: > 6.00

Q: Hello, please tell me recorded pKi for this one: CC(C)C[C@H](NC(=O)c1ccc(Oc2ccccc2)cc1)C(=O)N1CC[C@H]2OCC(=O)[C@H]21
Ans: < 4.60

Please look at the following molecule next.
Q: Hello, please tell me recorded pKi for this one: CCC(C)C(NC(=O)C(Cc1ccccc1)NC(=O)Cc1ccccc1)C(=O)C(=O)NCC(=O)NC(Cc1ccc2ccccc2c1)C(N)=O (stereo not shown)
Ans: > 10.00

====

Here, molecules appear alongside Ki reported for Procathepsin L (Homo sapiens) in the literature.

Example molecules with recorded Ki:
Q: Hello, please tell me recorded Ki for this one: COC(=O)c1ccc(COC[C@@H](CN2CCc3cc(F)ccc32)NC(=O)[C@H](CCC2CCCCC2)NC(=O)c2cccc(OC)c2)cc1
Ans: < 10 µM

Q: Hello, please tell me recorded Ki for this one: CC[C@H](C)[C@H](NC(=O)C(=O)C(Cc1ccccc1)NC(=O)C(Cc1ccccc1)NC(=O)Cc1ccccc1)C(=O)N1CSCC1C(=O)O (stereo partly drawn)
Ans: 0.461 µM

Q: Hello, please tell me recorded Ki for this one: CC(C)(C)c1ccc(C(=O)N[C@@H](Cc2ccc(O)cc2)C(=O)N[C@]23CCC[C@H]2OCC3=O)cc1
Ans: > 20 µM

Q: Hello, please tell me recorded Ki for this one: Cc1cccc(S(=O)(=O)N[C@@H](CC2CCCCC2)C(=O)N[C@@H](C)CN2CCc3cc(F)ccc32)c1
Ans: < 10 µM

Q: Hello, please tell me recorded Ki for this one: CC(C)C[C@H](NC(=O)c1cc2ccccc2s1)C(=O)N[C@]12CCC[C@H]1OCC2=O
Ans: > 10 µM

Please look at the following molecule next.
Q: Hello, please tell me recorded Ki for this one: CC(C)CC(C(=O)N[C@H]1C(=O)CO[C@@H]1C)c1cccc(-c2ccccc2)c1 (mixture of isomers)
Ans: > 5 µM
